Here we list molecules with their recorded EC50 when tested on Peroxisome proliferator-activated receptor gamma (Homo sapiens, UniProt P37231).
Sequence (P37231 whole entry): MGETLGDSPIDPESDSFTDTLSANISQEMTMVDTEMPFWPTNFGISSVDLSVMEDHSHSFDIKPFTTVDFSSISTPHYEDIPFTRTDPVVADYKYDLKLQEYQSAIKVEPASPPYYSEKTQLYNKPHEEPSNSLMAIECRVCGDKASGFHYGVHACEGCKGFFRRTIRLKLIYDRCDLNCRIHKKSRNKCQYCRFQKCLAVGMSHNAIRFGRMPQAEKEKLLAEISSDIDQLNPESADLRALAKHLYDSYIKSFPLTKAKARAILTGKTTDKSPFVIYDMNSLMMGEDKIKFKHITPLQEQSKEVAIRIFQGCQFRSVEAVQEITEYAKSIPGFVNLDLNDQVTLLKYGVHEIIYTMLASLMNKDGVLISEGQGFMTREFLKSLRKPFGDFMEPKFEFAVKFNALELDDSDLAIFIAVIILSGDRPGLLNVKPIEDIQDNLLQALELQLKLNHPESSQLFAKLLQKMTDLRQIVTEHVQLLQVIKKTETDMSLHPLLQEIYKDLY
Report the figure in nM without appending any unit label.

Example entries begin here.
COC1Oc2cc(O)c3c(c2C(=O)N1C(=O)NCc1cccs1)OC1=CC(O)=C(C(C)=O)C(=O)[C@]13C (some centres not stated): 1200
COC1Oc2cc(O)c3c(c2C(=O)N1C(=O)NCc1ccc(Cl)cc1)OC1=CC(O)=C(C(C)=O)C(=O)[C@]13C (some centres not stated): 770
COc1cccc(CNC(=O)N2C(=O)c3c(cc(O)c4c3OC3=CC(O)=C(C(C)=O)C(=O)[C@]34C)OC2OC)c1 (some centres not stated): 3800
COC1Oc2cc(O)c3c(c2C(=O)N1C(=O)NCc1cccnc1)OC1=CC(O)=C(C(C)=O)C(=O)[C@]13C (some centres not stated): 11000
COC1Oc2cc(O)c3c(c2C(=O)N1C(=O)NCc1ccc([N+](=O)[O-])cc1)OC1=CC(O)=C(C(C)=O)C(=O)[C@]13C (some centres not stated): 6000
COC1Oc2cc(O)c3c(c2C(=O)N1C(=O)NCc1cc2ccccc2o1)OC1=CC(O)=C(C(C)=O)C(=O)[C@]13C (some centres not stated): 2300
COc1cc(O)c2c(c1C(=O)NCc1ccccc1)OC1=CC(O)=C(C(C)=O)C(=O)[C@]12C: 220
COC1Oc2cc(O)c3c(c2C(=O)N1C(=O)NCc1ccccc1Cl)OC1=CC(O)=C(C(C)=O)C(=O)[C@]13C (some centres not stated): 280

Input: # returns recorded EC50 (system: Peroxisome proliferator-activated receptor gamma (Homo sapiens, UniProt P37231)) for COC1Oc2cc(O)c3c(c2C(=O)N1C(=O)NCc1ccco1)OC1=CC(O)=C(C(C)=O)C(=O)[C@]13C (some centres not stated)
Output: 560

Input: # returns recorded EC50 (system: Peroxisome proliferator-activated receptor gamma (Homo sapiens, UniProt P37231)) for COC1Oc2cc(O)c3c(c2C(=O)N1C(=O)NCc1cccc2ccccc12)OC1=CC(O)=C(C(C)=O)C(=O)[C@]13C (some centres not stated)
Output: 180

Input: # returns recorded EC50 (system: Peroxisome proliferator-activated receptor gamma (Homo sapiens, UniProt P37231)) for COC1Oc2cc(O)c3c(c2C(=O)N1C(=O)NCc1ccsc1)OC1=CC(O)=C(C(C)=O)C(=O)[C@]13C (some centres not stated)
Output: 4400

Input: # returns recorded EC50 (system: Peroxisome proliferator-activated receptor gamma (Homo sapiens, UniProt P37231)) for COC1Oc2cc(O)c3c(c2C(=O)N1C(=O)NCc1cccc(Cl)c1)OC1=CC(O)=C(C(C)=O)C(=O)[C@]13C (some centres not stated)
Output: 6700

Input: # returns recorded EC50 (system: Peroxisome proliferator-activated receptor gamma (Homo sapiens, UniProt P37231)) for COC1Oc2cc(O)c3c(c2C(=O)N1C(=O)NCc1cc2ccccc2s1)OC1=CC(O)=C(C(C)=O)C(=O)[C@]13C (some centres not stated)
Output: 3800

Input: # returns recorded EC50 (system: Peroxisome proliferator-activated receptor gamma (Homo sapiens, UniProt P37231)) for COC1Oc2cc(O)c3c(c2C(=O)N1C(=O)NCc1cccc([N+](=O)[O-])c1)OC1=CC(O)=C(C(C)=O)C(=O)[C@]13C (some centres not stated)
Output: 2400

Input: # returns recorded EC50 (system: Peroxisome proliferator-activated receptor gamma (Homo sapiens, UniProt P37231)) for COc1ccc(CNC(=O)N2C(=O)c3c(cc(O)c4c3OC3=CC(O)=C(C(C)=O)C(=O)[C@]34C)OC2OC)cc1 (some centres not stated)
Output: 1700

Input: # returns recorded EC50 (system: Peroxisome proliferator-activated receptor gamma (Homo sapiens, UniProt P37231)) for COC1Oc2cc(O)c3c(c2C(=O)N1C(=O)NCc1ccoc1)OC1=CC(O)=C(C(C)=O)C(=O)[C@]13C (some centres not stated)
Output: 3200

Input: # returns recorded EC50 (system: Peroxisome proliferator-activated receptor gamma (Homo sapiens, UniProt P37231)) for COC1Oc2cc(O)c3c(c2C(=O)N1C(=O)NCc1ccccc1[N+](=O)[O-])OC1=CC(O)=C(C(C)=O)C(=O)[C@]13C (some centres not stated)
Output: 1600

Recorded values, source ChEMBL document CHEMBL1156945.
